Target: T1, human BMP-11 (GDF-11; R&D Systems) (human, UniProt O95390 299-407)
T1 sequence (looked up): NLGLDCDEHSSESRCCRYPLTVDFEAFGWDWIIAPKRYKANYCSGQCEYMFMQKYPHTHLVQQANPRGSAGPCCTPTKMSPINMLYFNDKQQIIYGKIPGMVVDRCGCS
Experiment: cell-based or functional assay
parameter: ARE-luciferase IC50 (nM)

Reference set, count: 2
Give ARE-luciferase IC50 for 3008_G01 (designed binder) MGVSDVPRDLEVVAATPTSLLISWSLPGPGHFHYYRITYGETGGNSPVQEFTVPGRGVTATISGLKPGVDYTITVYAVTVTANQPIIYKPISINYRTEIDKPSQHHHHHH
0.31

Give ARE-luciferase IC50 for 2523_G06 (designed binder) MGVSDVPRDLEVVAATPTSLLISWWAPLGLARYYRITYGETGGNSPVQEFTVPGRGSTATISGLKPGVDYTITVYAVTIFRTGMVQYDPISINYRTEIDKPSQHHHHHH
46

A. 3008_A03 (designed binder) MGVSDVPRDLEVVAATPTSLLISWSLPHHGFGHYYRITYGETGGNSPVQEFTVPGRGVTATISGLKPGVDYTITVYAVTVTATGIIIYKPISINYRTEIDKPSQHHHHHH
B. 3007_C10 (designed binder) MGVSDVPRDLEVVAATPTSLLISWSLPSSGVAHYYRITYGETGGNSPVQEFTVPGRGVTATISGLKPGVDYTITVYAVTVTNTGVIIYKPISINYRTEIDKPSQHHHHHH
Determine, for A and B , which has the greater value of ARE-luciferase IC50. Identify your pick by its label.
A
